Kindly supply the reported cAMP release, % activity with respect to control, at 10 nM values for the records listed here.
# system under test: human GLP-1 receptor (human, UniProt P43220 24-463)
# protocol: cell-based or functional assay
Where no end group is shown, it is not given here. [ ]: non-standard residue; d: D form. αMePhe(2,6-F2) = C[C@](N)(Cc1c(F)cccc1F)C(=O)O; αMePhe(2-F) = C[C@](N)(Cc1ccccc1F)C(=O)O; αMeBip(OMe) = alpha-methylated Bip(OMe); hhPhe = N[C@@H](CCCc1ccccc1)C(=O)O; αMeD = C[C@](N)(CC(=O)O)C(=O)O; αMeAPPA = not defined here; αMeS = C[C@](N)(CO)C(=O)O; Aib = CC(C)(N)C(=O)O

VHSEGTFTSD[αMeBip(OMe)][hhPhe] (not fully specified (C-terminus); printed as VHSEGTFTSD-(αMe-Bip(OMe))-(APPA)) [Seq. ID. No. 11]; 81 % of control

Hey, quick one: what's cAMP release, % activity with respect to control, at 10 nM for each of these?
1. VHAQGTFT[αMeS]D[αMeBip(OMe)][hhPhe]-NH2 [Seq. ID. No. 34]
2. VH[Aib]EGTFTS[αMeD][αMeBip(OMe)][αMeAPPA] (not fully specified (C-terminus); printed as VH-Aib-EGTFTS-(αMe-Asp)-(αMe-Bip(OMe))-(αMe-APPA); reading uncertain) [Seq. ID. No. 187]
3. VHSQGT[αMePhe(2,6-F2)]TSD[αMeBip(OMe)][αMeAPPA] (not fully specified (C-terminus); printed as VHSQGT-(αMe-2,6-diF-Phe)-TSD-(αMe-Bip(OMe))-(αMe-APPA); reading uncertain) [Seq. ID. No. 149]
4. VHAQGT[αMePhe(2-F)]TSD[αMeBip(OMe)][αMeAPPA] (not fully specified (C-terminus); printed as VHAQGT-(αMe-2FPhe)-TSD-(αMe-Bip(OMe))-(αMe-APPA); reading uncertain) [Seq. ID. No. 142]

output:
1: 99 % of control; 2: 99 % of control; 3: 77 % of control; 4: 92 % of control
